Test system: Fibroblast
Assay protocol: Multiplex assay against human fibroblast
Type: toxicity, cell-based
Run conditions: 12 h, 10 µM, compound concentration 10 uM
Hi there, I'd appreciate the recorded Population Normal (%) for every entry that follows.
Give bare numbers, in %.

>  <Molecule>
CCOc1ccccc1C(=O)NCC1(N2CCN(CC)CC2)CCCCC1

>  <Units>
%

>  <Population Normal (%)>
100

$$$$
>  <Molecule>
Clc1ccccc1C(c1ccccc1)(c1ccccc1)n1cccn1

>  <Units>
%

>  <Population Normal (%)>
100

$$$$
>  <Molecule>
Cl.c1ccc2c(c1)CCC[C@H]2Nc1nc2ccccc2[nH]1

>  <Units>
%

>  <Population Normal (%)>
100

$$$$

Look up Population Normal (%) for the entries below, preserving their order.
1. N[C@@]1(C(=O)O)CO[C@H]2[C@H](C(=O)O)[C@H]21 [LY-379268]
2. CC(C)CC(=O)Nc1cncc(-c2ccc3[nH]nc(-c4nc5c(-c6cccc(F)c6)cncc5[nH]4)c3c2)c1 [LORECIVIVINT]
3. Cl.Clc1ccc2nsnc2c1NC1=NCCN1 [TIZANIDINE HYDROCHLORIDE]
4. CC(C)C[C@H](NC(=O)c1cc2ccccc2s1)C(=O)N1CCN(C(=O)[C@H](CO)NS(=O)(=O)c2ccc(Cl)cc2Cl)CC1

*A*
1: 96; 2: 100; 3: 95; 4: 100

---

Tested on: Fibroblast
Assay protocol: Multiplex assay against human fibroblast
Format: toxicity, cell-based
Run conditions: 12 h, 10 µM, compound concentration 10 uM
Non-standard residues stand in square brackets, D forms with d. Residues, ends and D or L forms follow the SMILES beside them.
Measured quantity: Population Normal (%)

The following compounds have reported results that may help.
>  <Compound>
COc1ccc(-n2c(C)c([N+](=O)[O-])c3ccc(O)cc32)cc1

>  <Population Normal (%)>
100%

$$$$
>  <Compound>
Cl.Clc1cc2cc(c1)-c1cnn3ccc(nc13)NCCOCCO2

>  <Population Normal (%)>
100%

$$$$
>  <Compound>
O=C(Nc1cc(C(F)(F)F)cc(C(F)(F)F)c1)c1cc(Cl)ccc1O

>  <Population Normal (%)>
100%

$$$$

Look up Population Normal (%) for the entries below, preserving their order.
1. CN(C)Cc1cccc(NC(=C2C(=O)Nc3cc(C(N)=O)ccc32)c2ccccc2)c1
2. CC(C)C[C@@H]1NC(=O)[C@@H](C(C)C)NC(=O)[C@@H]2CCCN2C(=O)[C@@H](CC(=O)O)NC(=O)[C@@H](Cc2c[nH]c3ccccc23)NC1=O [BQ-123] (cyclo(L[dW][dD]P[dV]))
3. C[C@H]1[C@H]2CC[C@H]3[C@@H]4CC=C5C[C@@H](N(C)C)CC[C@]5(C)[C@H]4CC[C@]23CN1C
4. COc1ccc(Cl)cc1[C@]1(F)C(=O)Nc2cc(C(F)(F)F)ccc21

*A*
1: 100%; 2: 97%; 3: 96%; 4: 100%

*Q* State the recorded Population Normal (%) for this entry: FC(F)(F)c1ccccc1-c1cc(C(F)(F)F)c2[nH]c(C3=NOC4(CCCCC4)C3)nc2c1
*A* 100%

---

Hi there, I'd appreciate the recorded Population Normal (%) for every entry that follows.
Tested on: HEK-293T
Assay protocol: Multiplex assay against HEK293T
Format: toxicity, cell-based
Run conditions: human, 24 h, 1 µM, compound concentration 1 uM
Give bare numbers, in %.

>  <Smiles repr>
Cc1noc(C)c1-c1cnc2c(-c3ccc(C(=O)O)cc3)cn([C@@H](C)c3ccccn3)c2c1

>  <Quantitative result>
100

$$$$
>  <Smiles repr>
CCNC1(C(N)=O)CCN(c2ncnc3c2nc(-c2ccccc2Cl)n3-c2ccc(Cl)cc2)CC1

>  <Quantitative result>
94

$$$$
>  <Smiles repr>
Cl.c1ccc2c(c1)CCC[C@H]2Nc1nc2ccccc2[nH]1

>  <Quantitative result>
100

$$$$

Look up Population Normal (%) for the entries below, preserving their order.
1. O=C1c2c(Br)c(Br)c(Br)c(Br)c2C(=O)N1c1ncc[nH]1
2. COc1ccc(-n2c(C)c([N+](=O)[O-])c3ccc(O)cc32)cc1

*A*
100
100
